Data origin, for the record: the supplement of paper PMC9112550

- Tested on: Escherichia coli TOP10;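 further: peptides expressed intracellularly from a pBAD plasmid library in pooled LB shake-flask culture, induced with 0.3% L-arabinose, DNA abundance read by NGS, three biological replicates, DESeq2 with apeglm shrinkage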
- Protocol Notes: shrunken log2 fold change of peptide-encoding DNA abundance (4.5 h post-induction vs induction); higher = less antimicrobial activity (less host growth inhibition)
- Details: time post-induction: 4.5 h; library: site-saturation at positions 5, 18, 19, 20
Value Type: shrunken log2 fold change

>>> endpoint_value("RRIRGRPPRLPRPRPRPLEMPRP")
0.998
>>> endpoint_value("RRIRIRPPRLPRPRPRPYFRPRP")
-0.0907
>>> endpoint_value("RRIRQRPPRLPRPRPRPIFWPRP")
0.142
>>> endpoint_value("RRIRNRPPRLPRPRPRPRDVPRP")
0.0624
>>> endpoint_value("RRIRWRPPRLPRPRPRPPAQPRP")
0.54
>>> endpoint_value("RRIRHRPPRLPRPRPRPFKYPRP")
-0.115
>>> endpoint_value("RRIRERPPRLPRPRPRPWFRPRP")
-0.214
>>> endpoint_value("RRIRARPPRLPRPRPRPQDPPRP")
0.557
>>> endpoint_value("RRIRYRPPRLPRPRPRPMMIPRP")
-0.00702
>>> endpoint_value("RRIRARPPRLPRPRPRPFNFPRP")
-0.0477
>>> endpoint_value("RRIRPRPPRLPRPRPRPHEGPRP")
0.0172
>>> endpoint_value("RRIRLRPPRLPRPRPRPYWVPRP")
0.135
>>> endpoint_value("RRIRCRPPRLPRPRPRPLHVPRP")
-0.178
>>> endpoint_value("RRIRMRPPRLPRPRPRPRMVPRP")
0.125
>>> endpoint_value("RRIRWRPPRLPRPRPRPSVCPRP")
0.104
>>> endpoint_value("RRIRTRPPRLPRPRPRPHCFPRP")
-0.102
>>> endpoint_value("RRIRSRPPRLPRPRPRPHNKPRP")
-0.71
>>> endpoint_value("RRIRSRPPRLPRPRPRPCEVPRP")
-0.333
>>> endpoint_value("RRIRPRPPRLPRPRPRPKWSPRP")
-0.113
>>> endpoint_value("RRIRIRPPRLPRPRPRPRYNPRP")
-0.588
>>> endpoint_value("RRIRTRPPRLPRPRPRPHRPPRP")
0.0943
>>> endpoint_value("RRIRGRPPRLPRPRPRPQGQPRP")
0.414
